targetSystem: human TGR5 (h-TGR5) (Homo sapiens)
Sequence (Q8TDU6 1-330): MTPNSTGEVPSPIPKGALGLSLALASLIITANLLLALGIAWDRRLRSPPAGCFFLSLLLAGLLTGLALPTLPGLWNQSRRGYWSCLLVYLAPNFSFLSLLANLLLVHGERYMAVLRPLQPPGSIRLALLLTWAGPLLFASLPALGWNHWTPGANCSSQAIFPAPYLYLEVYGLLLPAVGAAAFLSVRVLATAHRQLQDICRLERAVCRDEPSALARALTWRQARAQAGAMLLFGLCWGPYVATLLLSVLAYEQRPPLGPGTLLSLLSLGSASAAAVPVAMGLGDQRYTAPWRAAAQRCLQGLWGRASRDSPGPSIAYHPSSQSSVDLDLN
assayText: TGR5/CRE-Luciferase Assay
appliedConditions: HEK 293 hTGR5/CRE-Luc cells, 6 hours incubation, read-out: CRE-Luc Agonist (EC50)
Description: HEK 293 cells stably expressing human TGR5 (h-TGR5) or mouse TGR5 (m-TGR5) were generated from HEK 293 CRE-Luciferase cells. […] The luciferase activity was then measured on the EnVision™ plate reader and the dose response data was analyzed using ActivityBase. In the following tables, ECso values determined according to the TGR5 cAMP Assay are noted (cAMP); EC50 values determined according to the TGR5/CRE-Luciferiase Assay are noted (CRE-Luc).
pEC50: −log10 of the molar value.
assayMetric: pEC50

Examples with answers:
CC(C)(c1ccc(Cl)c(O)c1)c1cnc(SCc2c(F)cc(S(=O)(=O)NCCC[N+](C)(C)C)cc2F)n1-c1ccc(F)cc1 [Compound 13a, 2,2,2-trifluoroacetate]
6.00 to 7.00
COc1cc(C(C)(C)c2cnc(SCc3c(F)cc(S(=O)(=O)N(C)[C@H](CCCC[N+](C)(C)C)C(=O)O)cc3Cl)n2-c2ccc(F)cc2)ccc1Cl [Compound 17j, 2,2,2-trifluoroacetate]
> 7.00
COc1cc(C(C)(C)c2cnc(SCc3cc(S(=O)(=O)N(CCC[N+](C)(C)C)CCC[N+](C)(C)C)c(F)cc3Cl)n2-c2ccc(F)cc2)ccc1Cl
6.00 to 7.00
CC[N+](CC)(CC)CCOc1cc(F)c(CSc2ncc(C(C)(C)c3ccc(Cl)c(OC)c3)n2-c2ccc(F)cc2)c(F)c1 [Compound 20a]
> 7.00

Turning now to a further compound:
Look up and report measured pEC50 (human TGR5 (h-TGR5) (Homo sapiens)) for the following compound: COc1cc(C(C)(C)c2cnc(CCc3c(F)cc(S(=O)(=O)N(C)[C@@H](CCCC[N+](C)(C)C)C(=O)O)cc3Cl)n2-c2ccc(F)cc2)ccc1Cl [Compound 17o, 2,2,2-trifluoroacetate] > 7.00
